# Test system: PfIESI-1 RRM domain (Plasmodium falciparum ortholog aa 875-1232, GST fusion)
# Protocol: RBNS R-value (6-mer enrichment in protein-bound RNA vs input library) (ratio); higher = stronger binding preference
# Protocol conditions: protein concentration: 250 nM
In all, about 4,100 sequences were measured (“RBNS R-value (6-mer enrichment in protein-bound RNA vs input library)”: median about 0.99, highest 2% from about 1.4 on). The list comes from a sample in which the highest values are over-represented; it also holds close analogues and randomly drawn sequences.
Label criterion met when RBNS R-value is at or above 1; otherwise label criterion not met.

| Entry sequence | Target system | Cat |
| --- | --- | --- |
| GAACUG | PfIESI-1 RRM domain (Plasmodium falciparum ortholog aa 875-1232, GST fusion) | criterion met |
| UACACG | PfIESI-1 RRM domain (Plasmodium falciparum ortholog aa 875-1232, GST fusion) | criterion not met |
| GUGAUA | PfIESI-1 RRM domain (Plasmodium falciparum ortholog aa 875-1232, GST fusion) | criterion met |
| AGAUGG | PfIESI-1 RRM domain (Plasmodium falciparum ortholog aa 875-1232, GST fusion) | criterion met |
| UGGCAU | PfIESI-1 RRM domain (Plasmodium falciparum ortholog aa 875-1232, GST fusion) | criterion met |

Say whether AAUUGA shows RBNS R-value of 1 or more.
criterion met

Now this one: CCGGGA
criterion met

Now this one: CGGGGA
criterion met

Now this one: ACCGAG
criterion met

Now this one: CAUUGA
criterion met

Now this one: GACGAG
criterion met

Now this one: UCCGAA
criterion met

Now this one: CCGAUU
criterion met

Now this one: CAUCAC
criterion not met

====

# System: PfIESI-1 RRM domain (Plasmodium falciparum ortholog aa 875-1232, GST fusion)
# Protocol: RBNS R-value (6-mer enrichment in protein-bound RNA vs input library) (ratio); higher = stronger binding preference
# Protocol conditions: protein concentration: 250 nM
Over roughly 4,100 sequences, “RBNS R-value (6-mer enrichment in protein-bound RNA vs input library)” has its median near 0.99; the highest 2% begin near 1.4. The entries come from a sample that favours the highest values as a whole.
Readout kind: RBNS R-value
Provide a numeric answer; units are not to be included.

// solved cases for RBNS R-value follow
| Entry sequence | Readout kind | Value observed |
| --- | --- | --- |
| CCUGAG | RBNS R-value | 1.47 |
| UAACGC | RBNS R-value | 0.896 |
| UAGCUA | RBNS R-value | 0.902 |
| CAUAUA | RBNS R-value | 0.762 |
| CCCGCU | RBNS R-value | 1.09 |

Which RBNS R-value value belongs to CCUCGA ?
1.12

Now this one: CCACAA
0.988

Now this one: GAGAAA
1.41

====

# Tested on: PfIESI-1 RRM domain (Plasmodium falciparum ortholog aa 875-1232, GST fusion)
# Protocol: RBNS R-value (6-mer enrichment in protein-bound RNA vs input library) (ratio); higher = stronger binding preference
# Protocol conditions: protein concentration: 250 nM
Over roughly 4,100 sequences, “RBNS R-value (6-mer enrichment in protein-bound RNA vs input library)” has its median near 0.99; the highest 2% begin near 1.4. The list comes from a sample in which the highest values are over-represented; it also holds close analogues and randomly drawn sequences.
Readout kind: RBNS R-value
Provide a numeric answer; units are not to be included.

// solved cases for RBNS R-value follow
| Entry sequence | RBNS R-value |
| --- | --- |
| UAUGUC | 0.791 |
| AAUGUU | 0.827 |
| CCCUGG | 1.17 |
| ACCUGA | 1.51 |
| CCCUGA | 1.44 |

Which RBNS R-value value belongs to GGGAAC ?
1.14

Now this one: UACCGC
0.938

Now this one: ACCUGG
1.19

====

# Tested on: PfIESI-1 RRM domain (Plasmodium falciparum ortholog aa 875-1232, GST fusion)
# Protocol: RBNS R-value (6-mer enrichment in protein-bound RNA vs input library) (ratio); higher = stronger binding preference
# Protocol conditions: protein concentration: 250 nM
The full ranking holds about 4,100 sequences; the median of “RBNS R-value (6-mer enrichment in protein-bound RNA vs input library)” is about 0.99, and the highest 2% start at about 1.4. For the sample, the highest values were picked, then their nearest neighbours and some sequences at random.
Entries and their RBNS R-value
Provide a numeric answer; units are not to be included.

// solved cases for RBNS R-value follow
| Entry sequence | Target system | RBNS R-value |
| --- | --- | --- |
| UCGGCU | PfIESI-1 RRM domain (Plasmodium falciparum ortholog aa 875-1232, GST fusion) | 0.925 |
| GUAAUU | PfIESI-1 RRM domain (Plasmodium falciparum ortholog aa 875-1232, GST fusion) | 0.943 |
| AUACUA | PfIESI-1 RRM domain (Plasmodium falciparum ortholog aa 875-1232, GST fusion) | 0.816 |
| GCACCC | PfIESI-1 RRM domain (Plasmodium falciparum ortholog aa 875-1232, GST fusion) | 1.5 |
| GUCAAG | PfIESI-1 RRM domain (Plasmodium falciparum ortholog aa 875-1232, GST fusion) | 0.874 |
| GGUCGG | PfIESI-1 RRM domain (Plasmodium falciparum ortholog aa 875-1232, GST fusion) | 0.934 |

Which RBNS R-value value belongs to GCCCGC ?
1.24

Now this one: UUUUGU
0.909

Now this one: GCACCU
1.21

Now this one: ACACCA
1.16

Now this one: CUUUGG
0.959

Now this one: ACACCG
1.17

Now this one: GGGAGU
1.1

Now this one: GAAUUU
1.14

Now this one: AUAUAC
0.837

Now this one: CCUUGU
0.991

====

# System: PfIESI-1 RRM domain (Plasmodium falciparum ortholog aa 875-1232, GST fusion)
# Protocol: RBNS R-value (6-mer enrichment in protein-bound RNA vs input library) (ratio); higher = stronger binding preference
# Protocol conditions: protein concentration: 500 nM
The full ranking holds about 4,100 sequences; the median of “RBNS R-value (6-mer enrichment in protein-bound RNA vs input library)” is about 0.99, and the highest 2% start at about 1.4. The sample holds the highest values, similar sequences and a random draw of the others, so the mix is not that of the screen.
Classes based on RBNS R-value: bucket A: < 0.9; bucket B: ≥ 0.9 and < 1; bucket C: ≥ 1

Example results:
| Entry sequence | Target system | Cat |
| --- | --- | --- |
| GAUGCC | PfIESI-1 RRM domain (Plasmodium falciparum ortholog aa 875-1232, GST fusion) | bucket C |
| GCCAAA | PfIESI-1 RRM domain (Plasmodium falciparum ortholog aa 875-1232, GST fusion) | bucket C |
| CCUGAU | PfIESI-1 RRM domain (Plasmodium falciparum ortholog aa 875-1232, GST fusion) | bucket C |
| UCCUGU | PfIESI-1 RRM domain (Plasmodium falciparum ortholog aa 875-1232, GST fusion) | bucket A |
| ACUAGG | PfIESI-1 RRM domain (Plasmodium falciparum ortholog aa 875-1232, GST fusion) | bucket B |

Moving on to the next sequence.
Each sequence maps to one class by RBNS R-value. Which class for GUGUGG ?
bucket A

====

Entries and their RBNS R-value
# Tested on: PfIESI-1 RRM domain (Plasmodium falciparum ortholog aa 875-1232, GST fusion)
# Protocol: RBNS R-value (6-mer enrichment in protein-bound RNA vs input library) (ratio); higher = stronger binding preference; the methods of the paper give 50 / 100 / 500 nM protein instead
# Protocol conditions: protein concentration: 1000 nM
The full ranking holds about 4,100 sequences; the median of “RBNS R-value (6-mer enrichment in protein-bound RNA vs input library)” is about 0.99, and the highest 2% start at about 1.4. The list comes from a sample in which the highest values are over-represented; it also holds close analogues and randomly drawn sequences.
Provide a numeric answer; units are not to be included.

| Entry sequence | Target system | RBNS R-value |
| --- | --- | --- |
| CAAAUC | PfIESI-1 RRM domain (Plasmodium falciparum ortholog aa 875-1232, GST fusion) | 0.983 |
| GGAUGA | PfIESI-1 RRM domain (Plasmodium falciparum ortholog aa 875-1232, GST fusion) | 1.17 |
| UGAUGC | PfIESI-1 RRM domain (Plasmodium falciparum ortholog aa 875-1232, GST fusion) | 1.91 |
| AGGUAA | PfIESI-1 RRM domain (Plasmodium falciparum ortholog aa 875-1232, GST fusion) | 0.997 |
| UGAUGA | PfIESI-1 RRM domain (Plasmodium falciparum ortholog aa 875-1232, GST fusion) | 2.48 |
| GAACUU | PfIESI-1 RRM domain (Plasmodium falciparum ortholog aa 875-1232, GST fusion) | 0.985 |
| CCUUGC | PfIESI-1 RRM domain (Plasmodium falciparum ortholog aa 875-1232, GST fusion) | 1.09 |
| UGAUCA | PfIESI-1 RRM domain (Plasmodium falciparum ortholog aa 875-1232, GST fusion) | 1.17 |

Form entry - test system: PfIESI-1 RRM domain (Plasmodium falciparum ortholog aa 875-1232, GST fusion); read-out: RBNS R-value; sequence: CCACAA
1

Now this one: ACUUGA
1.34

Now this one: GGAUGC
1.07

Now this one: ACUUGU
0.962
